# measured-target: UniProtKB Q9UNQ0
# Sequence (Q9UNQ0 whole entry): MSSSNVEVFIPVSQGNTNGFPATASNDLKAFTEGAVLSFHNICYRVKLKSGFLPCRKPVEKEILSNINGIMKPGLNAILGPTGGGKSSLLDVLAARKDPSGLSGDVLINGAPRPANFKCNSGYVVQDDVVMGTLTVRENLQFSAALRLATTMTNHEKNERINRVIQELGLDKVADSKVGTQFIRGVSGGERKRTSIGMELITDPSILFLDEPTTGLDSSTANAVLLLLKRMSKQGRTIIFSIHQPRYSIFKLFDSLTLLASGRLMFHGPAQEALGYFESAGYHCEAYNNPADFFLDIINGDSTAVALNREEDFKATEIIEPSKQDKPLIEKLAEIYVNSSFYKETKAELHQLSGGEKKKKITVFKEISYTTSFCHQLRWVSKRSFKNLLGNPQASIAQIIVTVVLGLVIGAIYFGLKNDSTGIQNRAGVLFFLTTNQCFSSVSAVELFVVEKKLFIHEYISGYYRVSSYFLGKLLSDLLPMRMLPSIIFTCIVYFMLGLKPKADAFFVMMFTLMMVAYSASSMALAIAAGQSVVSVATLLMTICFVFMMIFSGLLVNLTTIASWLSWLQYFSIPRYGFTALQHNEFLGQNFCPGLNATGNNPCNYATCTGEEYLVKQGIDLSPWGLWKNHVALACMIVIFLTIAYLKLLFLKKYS
property-label: IC50 (nM)
Report only the number, with the unit nM understood.

For this compound ( O=C(c1cc(Cl)c(O)c(Cl)c1)N1CS(=O)(=O)c2ccccc21 [DOTINURAD] ), measured IC50 is 37.2

---

# assay-method-text: Oral bioavailability in rat relative to urinary excretion
# Format: ADME, organism-based
# experimental-conditions: urine
property-label: bioavailability (%)
Reply with just the number (in %).

// recorded bioavailability for O=C(c1cc(Cl)c(OS(=O)(=O)O)c(Cl)c1)N1CS(=O)(=O)c2ccccc21 : 20

Recorded result, O=C(O)[C@H]1O[C@@H](Oc2c(Cl)cc(C(=O)N3CS(=O)(=O)c4ccccc43)cc2Cl)[C@H](O)[C@@H](O)[C@@H]1O , bioavailability: 44.3

---

I'd be grateful if you could share measured pIC50 for these entries.
Formally, pIC50 is defined as -log10 of the concentration c, with c in mol/L.

Readout pIC50 for Cc1nc(-c2ccc(OCC(C)(C)C)c(C#N)c2)n(O)c1C(=O)O , test system Xanthine dehydrogenase/oxidase (Homo sapiens), was 5.22

The compound N#CC1=C(N)Oc2c(c(=O)oc3ccccc23)C1c1cccs1 (stereo not drawn) , tested on Xanthine dehydrogenase/oxidase (Homo sapiens), showed pIC50 of 6.23

The reported pIC50 value, Xanthine dehydrogenase/oxidase (Homo sapiens), for CC(=O)N1N=C(c2ccco2)CC1c1ccncc1 (stereo not drawn) reads 5.28
